Give measured MRT inf for each item. Keep answers brief.
- ASSAY NOTES: MRT (0 to infinity) in NSG mouse at 2 mg/kg, iv measured after 7 to 150 mins by LC/MS/MS analysis
- Type: ADME, organism-based
- TEST PARAMETERS: in vivo
Please respond with the number in min and leave the unit unwritten.

The compound identified as N#Cc1ccc(NC(=O)c2ccc3cccnc3c2O)cc1 registered its MRT inf at 27.5

Entry O=C(Nc1cc(C(F)(F)F)cc(C(F)(F)F)c1)c1cc(Br)c(-c2ccccc2)cc1O — recorded MRT inf = 61

Recorded MRT inf (compound O=C(Nc1ccc([N+](=O)[O-])cc1Cl)c1cc(Cl)ccc1O [NICLOSAMIDE] ): 24.2
